Hello, the source for this data is PubChem BioAssay (NCI), in case you need it.

Test system: HCT-116 colon
Assay: NCI tumour cell line growth inhibition, 48 h
Experimental Endpoint: TGI

Example entries begin here.
>>> reading("Cc1ccc(C(=O)Cn2c(C(=O)/C=C/c3cccs3)nc3ccccc32)cc1")
"> 100 µM"
>>> reading("Cc1cc(C)n(-c2ccnc3cc(Cl)ccc23)n1")
"> 100 µM"
>>> reading("COc1cc2c(cc1Cc1cccc(Cl)c1F)c(=O)c(C(=O)O)cn2[C@@H](CO)C(C)C")
"11.7 µM"
>>> reading("O=C1/C(=C/c2ccco2)N=C2Sc3c(nc[nH]c3=O)N12")
"> 100 µM"
>>> reading("Clc1ccc(C(Cc2cccc(Cl)c2)c2c(Cl)nc(N3CCNCC3)nc2Cl)cc1 (configuration not stated)")
"25.9 µM"
>>> reading("C[C@@H](NC(=O)/C(C#N)=C/c1ccc([N+](=O)[O-])cc1)c1ccccc1")
"3.79 µM"
>>> reading("CNC(=O)NCCN1CC2CCC(CC2)C1")
"> 10 µM"
>>> reading("CCOC(=O)c1cc(C(=O)c2cc(OC)c(OC)c(OC)c2)n2c1ccc1ccccc12")
"> 100 µM"
>>> reading("N=N/C(=C\\c1c(O)[nH]c2ccccc12)c1ccccc1")
"> 59.3 µM"
>>> reading("Cn1cc(C2=C(c3c4n(c5ccccc35)CCC(CN)C4)C(=O)NC2=O)c2ccccc21 (configuration not stated)")
"5.77 µM"

Given C/C(=N\NC(=S)N(C)C)c1nc2ncccc2[nH]1 , state its recorded TGI.
> 100 µM

Given O=C1C=CC2(C=C1)CCNC1=C2C(=O)c2ccccc2C1=O , state its recorded TGI.
> 100 µM

Given COc1ccc(C2=C(N)c3c(Cl)cccc3C2=O)cc1 , state its recorded TGI.
> 100 µM

Given CC1(C)C2CC(O)C1CCC2=O (configuration not stated) , state its recorded TGI.
> 100 µM

Given O=C(NCc1cccnc1)C1COc2cc(-c3cc(=O)c4ccccc4o3)ccc2O1 (configuration not stated) , state its recorded TGI.
> 100 µM

Given C=C/C(C)=C\CC1[C@](C)(O)CC[C@H]2C(C)(C)C(O)CC[C@]12C (some centres not stated) , state its recorded TGI.
> 100 µM

Given NC1CCCCC1N.O=[Se]([O-])[O-].[Pt+4] (configuration not stated) , state its recorded TGI.
> 45.2 µM

----------
Test system: RPMI-8226 leukemia
Assay: NCI tumour cell line growth inhibition, 48 h
Experimental Endpoint: TGI

Example entries begin here.
>>> reading("N=N/C(=C\\c1c(O)[nH]c2ccccc12)c1ccccc1")
"> 100 µM"
>>> reading("COC(=O)C1=C(OC(=O)c2ccccc2)C(C(=O)OC)[C@@]2(O)[C@@H](C(=O)OC)[C@H](C)C[C@@H]1[C@@H]2C(=O)OC (some centres undefined)")
"> 100 µM"
>>> reading("C[C@]12CC[C@H]3[C@@H](CC=C4C[C@@H](O)CC[C@@]43C)[C@@H]1C/C(=C/c1ccccc1)[C@@H]2O")
"> 100 µM"

Continue with the next compound.
Notebook entry, RPMI-8226 leukemia assay: TGI of O=C(CCCN1CCC(Nc2ccccc2)(c2nnnn2C2CCCCC2)CC1)c1ccc(F)cc1 = ?
25.1 µM

----------
Quick reference: TGI of the listed items.
Tested on: A549 NSCLC
Assay: NCI tumour cell line growth inhibition, 48 h
Kindly answer with a numeric value in µM, unit omitted.

Example entries begin here.
>>> reading("C[C@@H](NC(=O)/C(C#N)=C/c1ccc([N+](=O)[O-])cc1)c1ccccc1")
8.37
>>> reading("C=C(C)[C@@]1(O)CCCC[C@@H]1CC(Sc1ccccc1)Sc1ccccc1")
34.4
>>> reading("CCCN(CCC)C(=S)N/N=C/c1ccccn1")
11.9
>>> reading("[Cl][Hg][c]1ccc(Cl)s1")
60.9
>>> reading("Cc1cc(Nc2ncc3c(n2)N(C)C(=O)N(c2cc(NC(=O)c4cccc(C(F)(F)F)c4)ccc2C)C3)n(C)n1")
0.417
>>> reading("CC(C)(C)[Si](C)(C)OCC1OC(n2cc(I)c(=O)[nH]c2=O)C(O[Si](C)(C)C(C)(C)C)C1O[Si](C)(C)C(C)(C)C (stereo unspecified)")
26.1

Notebook entry, A549 NSCLC assay: TGI of Cc1occc1C(=S)Nc1ccc(Cl)c(/C=N/OC(C)(C)C)c1 = ?
38.6

----------
Quick reference: TGI of the listed items.
Tested on: SN12C renal
Assay: NCI tumour cell line growth inhibition, 48 h
Kindly answer with a numeric value in µM, unit omitted.

Example entries begin here.
>>> reading("Cn1cc(C2=C(c3c4n(c5ccccc35)CCC(CN)C4)C(=O)NC2=O)c2ccccc21 (stereo not given)")
6.56
>>> reading("Cc1c2c(OCC(O)CN3CCN(c4ccccc4)CC3)nn(C)c(=O)c2c(C)n1-c1ccccc1 (stereo not given)")
36.5
>>> reading("O=C(/C=C/c1ccc(C(F)(F)F)cc1)c1c([O-])on[n+]1-c1ccccc1")
7.71

Continue with the next compound.
Given S=C(NCCNC(=S)[S][Sn]([c]1ccccc1)([c]1ccccc1)[c]1ccccc1)[S][Sn]([c]1ccccc1)([c]1ccccc1)[c]1ccccc1 , state its recorded TGI.
0.218

----------
System: NCI-H460 lung
Assay: NCI tumour cell line growth inhibition, 48 h
Experimental Endpoint: TGI

Example entries begin here.
>>> reading("O=C(NCc1cccnc1)C1COc2cc(-c3cc(=O)c4ccccc4o3)ccc2O1 (configuration not stated)")
"> 100 µM"
>>> reading("COc1ccc2[nH]cc(C(=O)C(=O)NC34CC5CC(CC(C5)C3)C4)c2c1")
"91.3 µM"
>>> reading("O=C(NC(=O)c1ccccc1[N+](=O)[O-])Nc1ccc(Oc2ncc(Cl)cn2)c([N+](=O)[O-])c1")
"> 100 µM"
>>> reading("COc1ccc(-c2cc(-c3ccc(O)cc3O)c(C#N)c(=O)[nH]2)cc1")
"59.7 µM"
>>> reading("COc1ccc(Cn2cc3c(c2-c2ccccc2)CCc2cnoc2-3)cc1OC")
"> 100 µM"

Given COC(=O)C1=COC(OC2OC(CO)C(O)C(O)C2O)C2C3CN4CCc5c([nH]c6ccccc56)C4(CC12)O3 (configuration not stated) , state its recorded TGI.
> 100 µM

----------
System: M14 melanoma
Assay: NCI tumour cell line growth inhibition, 48 h
Where a SMILES comes first, the peptide text is derived from it. Bridges are numbered along the chain shown (N, C = ends). [ ]: non-standard residue; d: D form. The star is where a group is joined. ξ: configuration not given here. ξDab(CH2SO3H) = NC(CCNCS(=O)(=O)O)C(=O)O; Heptanoyl(6-Me) = CC(C)CCCCC(=O)*; Dab = NCC[CH](N)C(=O)O
Quick reference: TGI of the listed items.

Notebook entry, M14 melanoma assay: TGI of CC(=O)Oc1ccc2cc(Oc3ccc(Cl)c(Cl)c3)c(=O)oc2c1 = ?
> 100 µM

Notebook entry, M14 melanoma assay: TGI of CCC(C)C1NC(=O)C(CCNCS(=O)(=O)O)NC(=O)C(NC(=O)C(CCNCS(=O)(=O)O)NC(=O)C(NC(=O)C(CCNCS(=O)(=O)O)NC(=O)CCCCC(C)C)C(C)O)CCNC(=O)C(C(C)O)NC(=O)C(CCNCS(=O)(=O)O)NC(=O)C(CCNCS(=O)(=O)O)NC(=O)C(C(C)CC)NC1=O (configuration not stated) ({Heptanoyl(6-Me)}-[ξDab(CH2SO3H)]T[ξDab(CH2SO3H)][Dab][ξDab(CH2SO3H)]II[ξDab(CH2SO3H)][ξDab(CH2SO3H)]T; lactam 4-C; configuration not given here) = ?
20.6 µM

Notebook entry, M14 melanoma assay: TGI of NC(=O)c1cccc(N=c2oc3ccc(Br)cc3cc2-c2nc3ccccc3[nH]2)c1 = ?
32.3 µM

Notebook entry, M14 melanoma assay: TGI of OCCCNc1ncnc2[nH]ncc12 = ?
> 100 µM

Notebook entry, M14 melanoma assay: TGI of CCC(O)C1Cc2c(C)cc3c(c2O1)C(=O)c1ccccc1C3=O (configuration not stated) = ?
> 100 µM

Notebook entry, M14 melanoma assay: TGI of Cc1nn2c(nc1=O)sc1ccc3ccccc3c12 = ?
> 100 µM

Notebook entry, M14 melanoma assay: TGI of COc1ccc(C2=C(N)c3c(Cl)cccc3C2=O)cc1 = ?
> 100 µM

Notebook entry, M14 melanoma assay: TGI of NC(=O)c1ncn(C2OC(CO)C(O)C2O)c1NC=O (configuration not stated) = ?
> 100 µM

----------
Tested on: SK-MEL-5 melanoma
Assay: NCI tumour cell line growth inhibition, 48 h; in the data active means GI50 below about 0.43 µM; inactive means the rest
Outcomes you can answer with include only these: label 1 for active, label 0 for inactive

# outcome recorded in this test, key = CCN1C(=O)N(CC)C2C1NN=c1s/c(=C\c3ccco3)c(=O)n12 (centres undefined)
label 1

----------
Tested on: SK-MEL-2 melanoma
Assay: NCI tumour cell line growth inhibition, 48 h
Experimental Endpoint: TGI

>>> reading("O=C(NNC1=NCCCCN1)Nc1ccc(Cl)cc1")
"> 100 µM"

Continue with the next compound.
Given CC(C)(C)[Si](C)(C)OC1[C@@H](O[Si](C)(C)C(C)(C)C)[C@@H](CNC(=O)NC(=O)CF)O[C@H]1n1cnc2c(NC(=O)Nc3ccccc3)ncnc21 (stereo not given in full) , state its recorded TGI.
> 50 µM
